Cited source: patent US10821115B2

molecular target: recombinant human Mcl-1 (residues 171-327) / Bim interaction (Homo sapiens (Human)); assay: biochemical; format: binding; conditions: 0.1 nM Mcl-1(171-327), 0.05 nM biotin-Bim (51-76); read-out: Mcl-1 HTRF IC50
Sequence (Q07820 171-327): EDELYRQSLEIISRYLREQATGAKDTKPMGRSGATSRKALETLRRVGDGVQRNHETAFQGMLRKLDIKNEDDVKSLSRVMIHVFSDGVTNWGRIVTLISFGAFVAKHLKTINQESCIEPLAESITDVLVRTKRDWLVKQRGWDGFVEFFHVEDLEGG
So basically every entry gets a class from its IC50, ranges being range 1 = under 0.1 nM, range 2 = from 0.1 nM up to 0.2 nM, range 3 = 0.2 nM and over

Some solved cases for reference:
| molecule | qualitative label |
| --- | --- |
| CCO[C@@]1(CN2CCN(C(COC)COC)CC2)/C=C/C[C@H](C)[C@@H](C)S(=O)(=O)NC(=O)c2ccc3c(c2)N(C[C@@H]2CC[C@H]21)C[C@@]1(CCCc2cc(Cl)ccc21)CO3 | range 3 |
| CO[C@@]1(CN2CCN(Cc3nc(C)c(C)o3)CC2)/C=C/C[C@H](C)[C@@H](C)S(=O)(=O)NC(=O)c2ccc3c(c2)N(C[C@@H]2CC[C@H]21)C[C@@]1(CCCc2cc(Cl)ccc21)CO3 | range 2 |
| CO[C@@]1(CN2CCN3CCOC[C@@H]3C2)/C=C/[C@H](C)[C@H](C)CS(=O)(=O)NC(=O)c2ccc3c(c2)N(C[C@@H]2CC[C@H]21)C[C@@]1(CCCc2cc(Cl)ccc21)CO3 | range 1 |
| CO[C@]1(CN2CCN(C)CC2)/C=C/C[C@H](C)[C@@H](C)S(=O)(=O)NC(=O)c2ccc3c(c2)N(C[C@@H]2CC[C@H]21)C[C@@]1(CCCc2cc(Cl)ccc21)CO3 | range 2 |
| CO[C@@]1(CN2CCN3CCCC[C@@H]3C2)/C=C/C[C@H](C)[C@@H](C)S(=O)(=O)NC(=O)c2ccc3c(n2)N(C[C@@H]2CC[C@H]21)C[C@@]1(CCCc2cc(Cl)ccc21)CO3 | range 2 |

Tag the class for CCCO[C@]1(CN2CCN3CCCC[C@@H]3C2)/C=C/C[C@H](C)[C@@H](C)S(=O)(=O)NC(=O)c2ccc3c(c2)N(C[C@@H]2CC[C@H]21)C[C@@]1(CCCc2cc(Cl)ccc21)CO3
range 2

Cool, now CO[C@]1(CN2CCN3CCS(=O)(=O)C[C@@H]3C2)/C=C/C[C@H](C)[C@@H](C)S(=O)(=O)NC(=O)c2ccc3c(c2)N(C[C@@H]2CC[C@H]21)C[C@@]1(CCCc2cc(Cl)ccc21)CO3 (single isomer, unassigned) [Example 221]
range 1

Cool, now CO[C@@]1(CN2CCN(C(C)(C)C)CC2)/C=C/C[C@H](C)[C@@H](C)S(=O)(=O)NC(=O)c2ccc3c(c2)N(C[C@@H]2CC[C@H]21)C[C@@]1(CCCc2cc(Cl)ccc21)CO3
range 2

Cool, now CC[C@@H]1CC/C=C/[C@](CN2CCN3CCCC[C@@H]3C2)(OC)[C@@H]2CC[C@H]2CN2C[C@@]3(CCCc4cc(Cl)ccc43)COc3ccc(cc32)C(=O)NS1(=O)=O
range 3

Cool, now CO[C@@]1(CN2CCN3CCC(F)(F)C[C@@H]3C2)/C=C/C[C@H](C)[C@@H](C)S(=O)(=O)NC(=O)c2ccc3c(c2)N(C[C@@H]2CC[C@H]21)C[C@@]1(CCCc2cc(Cl)ccc21)CO3 (single isomer, unassigned)
range 3

Cool, now CO[C@]1(CN2C[C@@H](C)N(C(C)C)[C@H](C)C2)/C=C/C[C@H](C)[C@@H](C)S(=O)(=O)NC(=O)c2ccc3c(c2)N(C[C@@H]2CC[C@H]21)C[C@@]1(CCCc2cc(Cl)ccc21)CO3
range 1
